Target: DCN1 (DCUND1) protein PONY domain (Homo sapiens (Human))
Sequence (Q96GG9 60-248): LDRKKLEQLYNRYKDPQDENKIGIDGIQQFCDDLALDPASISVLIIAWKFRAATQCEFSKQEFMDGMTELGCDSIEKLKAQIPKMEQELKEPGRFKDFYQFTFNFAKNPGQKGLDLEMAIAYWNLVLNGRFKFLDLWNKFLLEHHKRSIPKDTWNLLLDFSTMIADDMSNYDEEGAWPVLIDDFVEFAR
Test: Off-rate measurement of reversible covalent molecules (jump dilution TR-FRET with Cy5 probe)
Assay type: binding
Settings: jump dilution, Cy5 covalent probe 150 nM, TR-FRET
Entries annotated with measured koff
Express it in s⁻¹; write the number only.

# compound, experimental.result
rows = [
    ("CCN1C(=O)[C@@H](NC(=O)c2cccc(C(F)(F)F)c2)[C@@H](c2ccc(F)cc2)c2c(C(=O)N3CCS(=O)(=O)C[C@H]3C#N)nn(C3CCOCC3)c21 (mixture of isomers) [Compound I-436]", 0.000238),
    ("CCN1C(=O)[C@@H](NC(=O)c2cccc(C(F)(F)F)c2)[C@@H](c2ccc(F)cc2)c2c(C(=O)N(C)[C@@H](C#N)CCN(C)C)nn(C3CCOCC3)c21 [Compound I-369]", 0.000425),
    ("CCN1C(=O)[C@@H](NC(=O)c2cccc(C(F)(F)F)c2)[C@@H](C2CC2)c2c(C(=O)N3CC[C@H]3C#N)nn(C3CCOCC3)c21 [Compound I-660]", "6.28e-05"),
]

Input CCN1C(=O)[C@@H](NC(=O)c2cccc(C(F)(F)F)c2)[C@@H](c2ccc(F)cc2)c2c(C(=O)N3CC[C@H]3C#N)nn(C3CCOCC3)c21 [Compound I-384] . Output koff: 9.21e-05

Input CCN1C(=O)[C@@H](NC(=O)c2cccc(C(F)(F)F)c2)[C@@H](C2CC2)c2c(C(=O)N3CCOC[C@H]3C#N)nn(C3CCOCC3)c21 [Compound I-381] . Output koff: 5.62e-05
